assay.summary: Tmax in C57BL/6 mouse blood xenografted mouse MC38 cells at 1.88 mg/kg,iv and measured after 72 hrs by LC-MS/MS analysis
Type: ADME, organism-based, MC-38

- chemical.string: "N#Cc1cnc2ccc(-c3c(-c4ccc(F)c(Cl)c4)ncn3CCO)nn12"
  unit.text: "h"
  Tmax: 1

====

assay.summary: Stability in rat plasma assessed as parent compound remaining after 24 hrs by HPLC-MS analysis
Assay type: ADME, cell-free
settings: read-out: Stability
Numbered stars: 1 amine (or outer) side, 2 acyl side, 3 side chain; on linkers, the order of the positions; unused ones are H or OH. Square brackets hold non-standard residues; d marks the D form. Peptide text beside a SMILES is read from it. * marks the point of attachment. X1 = N#Cc1cnc2ccc(-c3c(-c4ccc(F)c(Cl)c4)ncn3CCOCN*)nn12; C18 diacid = O=C(O)CCCCCCCCCCCCCCCCC(=O)*; γGlu = O=C(O)[C@H](CCC(=O)[*:2])N[*:1]; PABC = O=C(OCc1ccc(N[*:1])cc1)[*:2]; AEEA = NCCOCCOCC(=O)O

- molecule: "CC(C)C[C@H](NC(=O)COCCOCCNC(=O)COCCOCCNC(=O)CC[C@H](NC(=O)CCCCCCCCCCCCCCCCC(=O)O)C(=O)O)C(=O)N[C@@H](CO)C(=O)NCC(=O)N[C@@H](CCCCN)C(=O)Nc1ccc(COC(=O)NCOCCn2cnc(-c3ccc(F)c(Cl)c3)c2-c2ccc3ncc(C#N)n3n2)cc1 ({C18 diacid-γGlu-AEEA-AEEA}-LSGK[PABC]-X1)"
  remaining at 24 h / %: 84
- molecule: "CC(C)C[C@H](NC(=O)COCCOCCNC(=O)COCCOCCNC(=O)CC[C@H](NC(=O)CC[C@H](NC(=O)CCCCCCCCCCCCCCCCC(=O)O)C(=O)O)C(=O)O)C(=O)N[C@@H](CO)C(=O)NCC(=O)N[C@@H](CCCCN)C(=O)Nc1ccc(COC(=O)NCOCCn2cnc(-c3ccc(F)c(Cl)c3)c2-c2ccc3ncc(C#N)n3n2)cc1 ({C18 diacid-γGlu-γGlu-AEEA-AEEA}-LSGK[PABC]-X1)"
  remaining at 24 h / %: 87
- molecule: "CC(C)C[C@H](NC(=O)COCCOCCNC(=O)COCCOCCNC(=O)CC[C@H](NC(=O)CC[C@H](NC(=O)CC[C@H](NC(=O)CCCCCCCCCCCCCCCCC(=O)O)C(=O)O)C(=O)O)C(=O)O)C(=O)N[C@@H](CO)C(=O)NCC(=O)N[C@@H](CCCCN)C(=O)Nc1ccc(COC(=O)NCOCCn2cnc(-c3ccc(F)c(Cl)c3)c2-c2ccc3ncc(C#N)n3n2)cc1 ({C18 diacid-γGlu-γGlu-γGlu-AEEA-AEEA}-LSGK[PABC]-X1)"
  remaining at 24 h / %: 93
- molecule: "CC(C)C[C@H](NC(=O)COCCOCCNC(=O)CC[C@H](NC(=O)CCCCCCCCCCCCCCCCC(=O)O)C(=O)O)C(=O)N[C@@H](CO)C(=O)NCC(=O)N[C@@H](CCCCN)C(=O)Nc1ccc(COC(=O)NCOCCn2cnc(-c3ccc(F)c(Cl)c3)c2-c2ccc3ncc(C#N)n3n2)cc1 ({C18 diacid-γGlu-AEEA}-LSGK[PABC]-X1)"
  remaining at 24 h / %: 81
- molecule: "CC(C)C[C@H](NC(=O)CC[C@H](NC(=O)CCCCCCCCCCCCCCCCC(=O)O)C(=O)O)C(=O)N[C@@H](CO)C(=O)NCC(=O)N[C@@H](CCCCN)C(=O)Nc1ccc(COC(=O)NCOCCn2cnc(-c3ccc(F)c(Cl)c3)c2-c2ccc3ncc(C#N)n3n2)cc1 ({C18 diacid-γGlu}-LSGK[PABC]-X1)"
  remaining at 24 h / %: 77
- molecule: "CC(C)C[C@H](NC(=O)COCCOCCNC(=O)COCCOCCNC(=O)COCCOCCNC(=O)CC[C@H](NC(=O)CCCCCCCCCCCCCCCCC(=O)O)C(=O)O)C(=O)N[C@@H](CO)C(=O)NCC(=O)N[C@@H](CCCCN)C(=O)Nc1ccc(COC(=O)NCOCCn2cnc(-c3ccc(F)c(Cl)c3)c2-c2ccc3ncc(C#N)n3n2)cc1 ({C18 diacid-γGlu-AEEA-AEEA-AEEA}-LSGK[PABC]-X1)"
  remaining at 24 h / %: 76
